Values compiled from patent US12390437B2.

Assay: Mouse pharmacokinetic study, oral administration
Type: in vivo
Details: male, C57BL/6, po; mouse plasma, Example 112 dosed orally at 100 mg/kg (Intermediate 8 = metabolite), time 0.25 h; read-out: Example 112 and Intermediate 8 concentrations following oral administration
Description: Pharmacokinetic studies were carried out in 6-8-week-old male C57BL/6 mice having free access to food and water. […] For both intravenous and oral routes, the mice were restrained manually at the designated time points, with ca. 110 μL of blood being taken into K2EDTA tubes via the facial vein. Blood samples were put on ice and centrifuged to obtain plasma samples from which the concentration at each time point was measured by LC-MS/MS.
recorded endpoint: concentration at 0.25 h (µg/mL)

(P) C=C(CC(=O)O[C@H](C)CCCCCC)C(=O)OCC(=O)O
(Q) C=C(CC(=O)O[C@H](C)CCCCCC)C(=O)O [Intermediate 8]
Kindly identify which of P and Q has the larger recorded concentration at 0.25 h value. Give the chosen item's label as your response.
P
(P: 116 µg/mL, Q: 19.8 µg/mL)

* * *

assay: Mouse pharmacokinetic study, oral administration; type: in vivo; conditions: male, C57BL/6, po; mouse plasma, Example 112 dosed orally at 100 mg/kg (Intermediate 8 = metabolite), time 0.083 h; read-out: Example 112 and Intermediate 8 concentrations following oral administration
recorded endpoint: concentration at 0.083 h (µg/mL)

(a) C=C(CC(=O)O[C@H](C)CCCCCC)C(=O)OCC(=O)O
(b) C=C(CC(=O)O[C@H](C)CCCCCC)C(=O)O [Intermediate 8]
Of a versus b , which is the one with smaller reported concentration at 0.083 h? Give the chosen item's label as your response.
b
(b: 18.5 µg/mL, a: 109 µg/mL)

* * *

experiment: Mouse pharmacokinetic study, intravenous dosing; type: in vivo; details: male, C57BL/6, mouse, iv; plasma, 10 mg/kg i.v., time 0.133 h; read-out: Parent compound concentration following intravenous administration
recorded endpoint: concentration at 0.133 h (ng/mL)

Some solved cases for reference:
molecule: C=C(CC(=O)OC(C)(C)CCCCC)C(=O)OCC(=O)O
concentration at 0.133 h / ng/mL: 10700

molecule: C=C(CC(=O)OCCCCCC)C(=O)OCC(=O)NS(=O)(=O)N(C)C
concentration at 0.133 h / ng/mL: 161

molecule: C=C(CC(=O)O[C@@H](C)CCCCCC)C(=O)OCc1nn[nH]n1
concentration at 0.133 h / ng/mL: 1250

molecule: C=C(CC(=O)OC1C(C)(C)CC1(C)C)C(=O)OCC(=O)O
concentration at 0.133 h / ng/mL: 6430

molecule: C=C(CC(=O)O[C@H](C)CCCCCC)C(=O)OCCC(=O)O
concentration at 0.133 h / ng/mL: 23500

molecule: C=C(CC(=O)OC1CC2(CCC2)C1)C(=O)OCC(=O)O
concentration at 0.133 h / ng/mL: 3590

molecule: C=C(CC(=O)OCCCCCC)C(=O)OCC(=O)O
concentration at 0.133 h / ng/mL: 6070

(A) C=C(CC(=O)OC1CCCCCCC1)C(=O)OC(C)c1nnn[nH]1 (stereo not drawn)
(B) C=C(CC(=O)O[C@@H](C)CCCCCC)C(=O)OCC(=O)O
Kindly identify which of A and B has the larger recorded concentration at 0.133 h value. Give the chosen item's label as your response.
B
